Reported IC50 values are given for each entry in this list.
Target: hROMK (hKir1.1) (Homo sapiens, UniProt P48048)
Sequence (P48048 1-391): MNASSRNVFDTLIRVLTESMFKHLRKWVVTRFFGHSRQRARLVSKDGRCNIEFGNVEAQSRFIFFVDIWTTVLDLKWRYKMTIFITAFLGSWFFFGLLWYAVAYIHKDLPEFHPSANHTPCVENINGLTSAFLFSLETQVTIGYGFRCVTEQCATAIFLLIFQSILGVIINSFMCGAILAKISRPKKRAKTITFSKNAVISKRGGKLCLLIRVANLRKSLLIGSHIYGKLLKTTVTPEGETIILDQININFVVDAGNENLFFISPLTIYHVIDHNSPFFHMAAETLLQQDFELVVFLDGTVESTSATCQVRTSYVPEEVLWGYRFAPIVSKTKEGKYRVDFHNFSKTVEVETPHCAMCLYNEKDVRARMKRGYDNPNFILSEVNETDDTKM
Test: Thallium Flux Assay
Details: HEK293 cells stably expressing hROMK (hKir1.1)

Solved cases (5 shown):
compound | IC50
Cc1c([C@@H](O)CN2CCC(NC(=O)c3ccc(C#N)nc3)C(F)C2)ccc2c1COC2=O (single isomer, unassigned) [46 B] | 650 nM
COc1cc(F)c(C#N)cc1C(=O)NC1CCN(CCc2ccc3c(c2C)COC3=O)CC1 | 30 nM
Cc1c([C@@H](O)CN2CCC(C)(NC(=O)c3ccc(C#N)cn3)CC2)ccc2c1COC2=O | 1320 nM
Cc1cc(C(=O)NC2CCN(C[C@@H](O)c3ccc4c(c3C)COC4=O)CC2)ncc1C#N | 720 nM
Cc1c([C@@H](O)CN2CCC(NC(=O)c3ccc(-n4cccn4)nc3)CC2)ccc2c1COC2=O | 270 nM

get_value(item= Cc1c([C@@H](O)CN2CCC(CNC(=O)c3ccc(-n4cnnn4)cn3)(c3ccccc3)C2)ccc2c1COC2=O (stereo partly drawn) , readout=IC50) returns 630 nM

get_value(item= Cc1c([C@@H](O)CN2CCC(NC(=O)c3ccc(C#N)nc3)C(F)C2)ccc2c1COC2=O (single isomer, unassigned) [46 A] , readout=IC50) returns 520 nM

get_value(item= Cc1c([C@@H](O)CN2C3CCC2CC(NC(=O)c2ccc(-n4cnnn4)cn2)C3)ccc2c1COC2=O (stereo partly drawn) , readout=IC50) returns 430 nM

get_value(item= Cc1c(C(O)CN2CCC(NC(=O)c3ccc4c(c3)COC4=O)CC2)ccc(F)c1C#N (stereo not drawn) , readout=IC50) returns 350 nM

get_value(item= Cc1c([C@@H](O)CN2CCCC(C(C)(C)NC(=O)c3ccc(-n4cnnn4)nc3)C2)ccc2c1COC2=O (stereo partly drawn) , readout=IC50) returns 970 nM

get_value(item= Cc1cc(C(=O)NC2CCN(C[C@H](O)c3ccc4c(c3C)COC4=O)CC2F)ncc1C#N (single isomer, unassigned) [48 B] , readout=IC50) returns 100 nM

* * *

Reported pIC50 values are given for each entry in this list.
Molecular target: hROMK (hKir1.1) (Homo sapiens, UniProt P48048)
Sequence (P48048 1-391): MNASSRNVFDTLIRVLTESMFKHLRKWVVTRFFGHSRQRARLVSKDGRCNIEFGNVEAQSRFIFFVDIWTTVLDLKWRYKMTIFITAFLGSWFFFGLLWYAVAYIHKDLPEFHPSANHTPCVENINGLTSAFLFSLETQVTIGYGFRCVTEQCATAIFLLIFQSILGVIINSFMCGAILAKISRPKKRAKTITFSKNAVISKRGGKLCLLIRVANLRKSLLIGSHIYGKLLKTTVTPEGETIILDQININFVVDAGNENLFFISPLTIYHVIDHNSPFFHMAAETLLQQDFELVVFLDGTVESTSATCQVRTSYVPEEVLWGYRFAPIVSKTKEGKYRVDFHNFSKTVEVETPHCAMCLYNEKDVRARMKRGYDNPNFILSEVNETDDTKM
Assay: Thallium Flux Assay
Conditions: HEK293 cells stably expressing hROMK (hKir1.1)
Kindly note that pIC50 refers to -log10 of the concentration in mol/L and answer with the value alone.

Solved cases (5 shown):
compound | test.target | pIC50
Cc1c([C@@H](O)CN2CCC(N3Cc4cc(-n5cnnn5)ccc4C3=O)CC2)ccc2c1COC2=O [Example 91] | hROMK (hKir1.1) (Homo sapiens, UniProt P48048) | 6.89
COc1cc(F)c(C#N)cc1C(=O)NC1CCN(C[C@H](O)c2ccc3c(c2C)COC3=O)CC1 [Example 20] | hROMK (hKir1.1) (Homo sapiens, UniProt P48048) | 7.15
Cc1c(CCN2CCC(NC(=O)c3ccc(-n4cccn4)cc3)CC2)ccc2c1COC2=O [Example 31] | hROMK (hKir1.1) (Homo sapiens, UniProt P48048) | 7.00
Cc1c(CCN2CCC(NC(=O)c3cccc(-n4cnnn4)c3)CC2)ccc2c1COC2=O [Example 30] | hROMK (hKir1.1) (Homo sapiens, UniProt P48048) | 6.92
Cc1c([C@@H](O)CN2CCC(NC(=O)c3ccc(-c4nccs4)cc3)CC2)ccc2c1COC2=O [Example 75] | hROMK (hKir1.1) (Homo sapiens, UniProt P48048) | 6.41

get_value(item= Cc1c([C@@H](O)CN2CCC(NC(=O)c3cnc(-n4cnnn4)cn3)CC2)ccc2c1COC2=O [Example 64] , readout=pIC50) returns 6.33

get_value(item= Cc1cc(C(=O)N[C@H]2CCN(C[C@H](O)c3ccc4c(c3C)COC4=O)C[C@H]2F)ccc1C#N (single isomer, unassigned) [47 B] , readout=pIC50) returns 6.74

* * *

Target: UniProt:P48048
Assay: Thallium Flux Assay
Conditions: HEK293 cells stably expressing hROMK (hKir1.1)
# note: boundary value 0.3 µM maps to n; IC50 below it maps to y

// known answers, use as guide
molecule | classification
Cc1cc(C(=O)NC2CCN(C[C@H](O)c3ccc4c(c3C)COC4=O)CC2)ccc1-n1cnnn1 [Example 78] | n
Cc1c([C@@H](O)CN2CCC(NC(=O)c3ccc(-n4cncn4)cc3)CC2)ccc2c1COC2=O [Example 74] | n
Cc1c([C@@H](O)CN2CCC(NC(=O)c3ccc(-n4cnnn4)cc3)CC2)ccc2c1COC2=O [Example 34] | y
Cc1c([C@@H](O)CN2CC[C@@H](NC(=O)c3ccc(-n4cnnn4)cn3)C2)ccc2c1COC2=O [Example 62] | n
C[C@H]1Cc2cc(CCN3CCC(NC(=O)c4ccc5c(c4)COC5=O)CC3)ccc2C(=O)O1 [Example 4] | n
Cc1c([C@@H](O)CN2CCCC(C)(CNC(=O)c3ccc(-n4cnnn4)cn3)C2)ccc2c1COC2=O (stereo partly drawn) [Example 67] | n

Query :: Dear colleague, could you confirm whether IC50 of Cc1c(CCN2CCC(NC(=O)c3ccc4c(c3)COC4=O)CC2)ccc2c1COC2=O [Example 1] falls below 0.3 µM? Thanks.
Result :: y

Query :: Dear colleague, could you confirm whether IC50 of Cc1c([C@@H](O)CN2CC3C(C2)C3NC(=O)c2ccc(C#N)cn2)ccc2c1COC2=O (stereo partly drawn) [Example 33] falls below 0.3 µM? Thanks.
Result :: y

Query :: Dear colleague, could you confirm whether IC50 of Cc1c([C@@H](O)CN2CCC(NC(=O)c3ccc(-c4cc[nH]n4)cc3)CC2)ccc2c1COC2=O [Example 39] falls below 0.3 µM? Thanks.
Result :: n

* * *

Target: hROMK (hKir1.1) (Homo sapiens, UniProt P48048)
Experiment: Thallium Flux Assay
Conditions: HEK293 cells stably expressing hROMK (hKir1.1)
Reported IC50 values are given for each entry in this list.
// note: answer is a bare numeric in nM

molecule | measure | unit.abbreviation | quantitative.readout
COc1cc(C(=O)NC2CCN(C[C@H](O)c3ccc4c(c3C)COC4=O)CC2)ccc1C#N [Example 57] | IC50 | nM | 320
Cc1c(CCN2CCC(NC(=O)c3ccc(C#N)c(F)c3)CC2)ccc2c1COC2=O [Example 11] | IC50 | nM | 30

get_value(item= Cc1c([C@@H](O)CN2CCC(C3(NC(=O)c4ccc(-n5cnnn5)cn4)CCC3)C2)ccc2c1COC2=O (stereo partly shown) [Example 70] , readout=IC50) returns 760

get_value(item= Cc1c(CCN2CCC(NC(=O)c3ccc(-n4cnnn4)nc3)CC2)ccc2c1COC2=O [Example 3] , readout=IC50) returns 500
